# assayed.target: Caspase-1 (Homo sapiens, UniProt P29466)
# Sequence (P29466 120-297 limits assumed): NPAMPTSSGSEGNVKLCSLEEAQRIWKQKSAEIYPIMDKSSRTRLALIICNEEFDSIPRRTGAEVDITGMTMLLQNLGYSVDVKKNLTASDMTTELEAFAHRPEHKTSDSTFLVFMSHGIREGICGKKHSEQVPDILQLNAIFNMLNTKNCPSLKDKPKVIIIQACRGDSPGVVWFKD
# Sequence (P29466 317-404 limits assumed): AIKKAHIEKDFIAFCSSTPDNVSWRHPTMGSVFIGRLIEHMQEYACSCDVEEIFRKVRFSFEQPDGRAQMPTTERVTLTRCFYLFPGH
Would you kindly list pIC50 for each of these molecules?
Please treat pIC50 as minus the base-10 logarithm of the molar concentration.

Input: Bench note: what pIC50 did `Cc1ccc(-n2c(O)cc(Sc3ccccc3C(=O)O)c2O)cc1` show?
Output: 4.69

Input: What about this molecule? `Oc1cc(Sc2nnnn2-c2ccccc2)c(O)n1-c1cccc(Cl)c1`
Output: 5.29
